# assay_summary: soluble fraction after stress (log2 fold change); higher = more stays soluble; pooled small domains, quantitative proteomics
# run_parameters: stress: pH 4
I'd appreciate it if you could supply soluble fraction (log2) values for the items below.
Answers are plain numbers.

HMGTDIGADKAAQTALADAGLSSSQVTGLRTKQDWDDGQLRYEVEFRAGGVEYDYELAADGTILKADRDT	0.254
HMGKAVTLEEARAIIQAKVPGASPDMIQIWEEHGDGRGRYEGELSYNNMKYEFEMDPKTGIIFDWNA	-0.189
HMQADKYKSYTATDFLKDKDFLRWQLFNGEEDMLFWGRVIEEYPALRSRVEEGIVLYKDNIR	-1.18
HMIADSSSIHQDAKQQLHSYLRTNIQPLMRAGKQLDLKDILHHVTIRKPKLVQQLGMKQVQHMVQVLLD	0.184
HMQTLGADLRALRKARGLTLTDMAETLGRSVGWLSQVERDLSEPSITDLRHMARTLGVSVSMLFS	-0.553

// input: 3 sequences below; output: soluble fraction (log2) for each
1. HMLYETLKKGDQGTSVKTLQEKLKALGYLTGAADGKYGAGTETAVKSFQKAAGLTETGTADPETLSAVYAA
2. HMKLTPKQQQIYDFISSFADEHGYPPSVREIAQAVNLKSPATVHFHLKGLREAGYISQAEGKTRAITI
3. HMTGEEVLIMLGEKMKLIRNYNGYSQRQIAEILKIERSTYASYETGRNRPDIFAVQRFAKIFNVSVDYIL

Completion:
1: 0.0393; 2: -0.136; 3: -0.877

====

# assay_summary: soluble fraction after stress (log2 fold change); higher = more stays soluble; pooled small domains, quantitative proteomics
# run_parameters: stress: pH 4
measured_parameter: soluble fraction (log2)
Give bare numbers.

HMTKTEFLEALRRALNGNMAAASVEDNLKFYENYFYSEEAKGRSEAAVLSELGDPRILARTLIDAAER	-0.816
HMIEIKNLSFSYGKKKQSVFNDFSLTLDKGSVYGLLGKNGTGKSTLLYLMTGLLRPQAGQVLYKGVDVS	0.159
HMRQSQEVSGGERYRRLTAYLDTHPFITRKEYSGITGLLKNKALNDLNLLVNKGYLEAMGRGSHKVYVRPM	0.321
HMQYDALVLNLLQEKNLTSESLKDAQRAFAKSHNLSTLPSKSQILQAYFQLLEQGKIEKNPDFELLL	0.0152
HMKNIINLVIDGELHGKRIDAVIAQKNDSLSRTRIKNLVINGNLSINDEIVSDPSKKIYKDDKVSLTIPLP	-0.085

Let us examine a further case.
Prompt: Item "HMVAFYATPKERGIYDDAETYREGDIVSIADGSRWIYVNPTATAGNDPADGSVYWERMSGAATGP" has what recorded soluble fraction (log2)?
Completion: -0.127

====

# assay_summary: soluble fraction after stress (log2 fold change); higher = more stays soluble; pooled small domains, quantitative proteomics
# run_parameters: stress: pH 4
measured_parameter: soluble fraction (log2)

HMRVDLATEVHSVLRRMMSRPPTLQEIRADLDGEEPGRVHEALDALRAAFRGGRGPKNPYESLKRSLRRG	-0.126
HMSNRFIQFRQRAIDWLNSDRDFNAGILLLEESGFKPGVVAKLKRHGVNGPEAKKRLKFLINELVKAWA	-0.374

Prompt: Item "HMISKWGELVDLAVQLDIIQKSGSWFSMGDERIGQGANSVKDYLIANPDIAEKVEAEVRENLWKLN" has what recorded soluble fraction (log2)?
Completion: -0.351

====

# assay_summary: soluble fraction after stress (log2 fold change); higher = more stays soluble; pooled small domains, quantitative proteomics
# run_parameters: stress: pH 4
Please note: true applies when soluble fraction (log2) is -0.4 or greater, and false applies otherwise.

As a guide, the following entries are already answered.
HMGIRYQLADDVTDEQITAMTGKKAKIAAAIKAAGSAVSKMNVAGEMGYDKQNPINKDFMELVDAGIIVPS	true
HMPFNLKSLADRLSHVFPGLVKMRDDIGAIIVMDKIKVTEHGVTEGGGLAADRVRAVYNEFIKEY	true
HMDYRSMSGLQKAALLIMSVGEETAAKLFQLMHDDEIREISQTMANLGTVNATVIERLFVEFADAISS	false
HMGDADDLSRELLQQGLSLKEAVADFERRYLQQAMQRHSSIASVSEALDVHFSTLWRKLVKYNLV	false
HMTYPGSIALVNPKHEAFVQHYVATSGSRGQAAKLAGVTTTTARNLLQDVEATARIRYLNAQQFQ	true

Prompt: Is soluble fraction (log2) for "HMDTHDVQVPQEGQGLRLDLFLTDHIEGSRSFIQTIIKDGHVILNGKKAKANSRLNEGDYVVWSIPKPE" at or above -0.4?
Completion: true

Prompt: Is soluble fraction (log2) for "HMRGLIEPLSQRELEVLMLMARGQSNAHIADQLNISENTIKWHGRNIFGKLGVSNRTEAVITSQEMGMLAT" at or above -0.4?
Completion: false

Prompt: Is soluble fraction (log2) for "HMKEYPEVITTSRLNVRTGPGTGYQRLGTLDQNLRVLVLTRQQGWAQIRGMLNGETVIGWVNDYYLQAID" at or above -0.4?
Completion: true

====

# assay_summary: soluble fraction after stress (log2 fold change); higher = more stays soluble; pooled small domains, quantitative proteomics
# run_parameters: stress: pH 4
I'd appreciate it if you could supply soluble fraction (log2) values for the items below.
One number for each entry.

Worked cases, answers included:
HMEFQVKVIVSSLNIRSGPGTSYDTLGTVTKGDIFTIVETNSDSTWGKMQSGGWISIKDAYVKK	-0.216
HMSATPQRMTIIDALDSSGKNLSAYELLDLLNDKGQLFNISTIYRVLDFWIEMGIVHKINSSNTYL	0.132

// input: 2 sequences below; output: soluble fraction (log2) for each
1. HMTRQNTAVQQSDMAHHKASELTEGMSIVHSHFGRGTIISIETADDPRVTVDFSSEGRKTMLLRFAKFAIE
2. HMEKKEWVIYITGAVKKPGVYRIPEGARVYQALEAAGGFTPEADRDAVNLAAMLQDGAHIKFPAVGEEV

Completion:
1. -1.08
2. 0.0865

====

# assay_summary: soluble fraction after stress (log2 fold change); higher = more stays soluble; pooled small domains, quantitative proteomics
# run_parameters: stress: pH 4
I'd appreciate it if you could supply soluble fraction (log2) values for the items below.
Numbers only.

HMTKSTSMDLGGFMIVEGSETVRLGGQILQKDVDYTIDYFSGKINFISEEALNPGAEISVSYEENQ	-1.44

// input: 7 sequences below; output: soluble fraction (log2) for each
1. HMRKLTDRQRQILDLIKTIIAETGAPPTRAEISTALGFKSANAAQEHLQALAQKGMIDLVSGASRGIRLRG
2. HMIVIMKAKAEEEDVNRVIDTIQSLGLRTQLNLGAERMVVAVIGDISKIGEDNFFRIRAMKGVENTVFVSK
3. HMKNYYELLGVAREASQDQIKKAYRKLARKYHPDVSKEADAETRMQELNVAYDTLSDAEKKREYDFQLDHP
4. HMSVLNLQTDIPKKYTDVLGTSVKGRLNTLVHNVIINSVDRPVIQMSEEVHEAMQGLRIFMFENVYRNPV
5. HMPGLQSVTPAELKIGMYVILPLAWDEHPFLKNHFLIQSEAQINKIRELGTKGIQIDLSKSHP
6. HMSFNTNENKNLLWELMNKHNLFKDIDNQHYQEVQKLFEEEIVFISNNNKSLDLVEQNKKFLSSIITKLNK
7. HMLRDMIIQSYRYYTDKERNPRQVWNRMEADAFWEIIRDYEGYNGDGYVHTKIIPEMEALTVIEMDN

Completion:
1. -0.194
2. -0.811
3. 0.218
4. 0.22
5. 0.0126
6. -1.2
7. -1.62

// input: 8 sequences below; output: soluble fraction (log2) for each
1. HMEEQIEVPVQINGKVRSKLTVAPETDEKQIEALALADPKVQQQLEGKRVLKVIVAQKRLVNIVA
2. HMQDVWEPFLAKGYVFADGMLTKLIHKRGDVYKTQEIGSDKIIYVIKDGDTFAHGKTVKAAMLDLAFKKS
3. HMSLAATLSPREIDTVRLIAVGSSNKEIARQLGIAETTVKIHVQHILRKLNLTSRVQVAVFANAEGII
4. HMVELNDNEKIVYDILKETEKIHIDELTAKVQLTQSILSGALVQMEMKGMIVSLPGKMYKLL
5. HMTVKEVGYDTFLTMLDKKEIKQVQVEDNQIIFSDNADPVNYYKTGVFNDPDLVNRLQDAGVEFG
6. HMKITAPLPGTITEIKVKVGDTVKNGDTVVVLEAMKMQNNIEAESNGTVTAIFVNKGDTVMEGDALMTI
7. HMDSRVRHAVLTTLLGKRIVDDLVEKGELPGTPLVLATAPGLDRDLEQLIAQRVVTALLTTV
8. HMSADEVSQQLTSEQTKSKSYQALLQAYAAYQQKSFDDAALELQNVQQDVLSDSQKTIYNTISQAVNS

Completion:
1. -0.035
2. -0.392
3. -0.407
4. -1.53
5. -0.37
6. 0.22
7. 0.192
8. -0.0227

// input: 3 sequences below; output: soluble fraction (log2) for each
1. HMQRYFLEEAYQPSEKFELSAEAFHHIVHVMRMKPKDRVYLAFSDQQVIIAEITEITEEKVYLTEIEKEE
2. HMGEVVSAPMPGTILSIKVSQGQTVKRGQVLLILEAMKMENEIVAPRDGVVVQISTTQGASVETGAPLVVL
3. HMVETDQESSLIQAIYKYFEITGDNTFFDEKVGEKTVADRMEWAMDYLIQNRFSEEYGLIWGA

Completion:
[-1.63, -0.118, -0.517]
